- assay_method_text: calorie-restriction mimetic ROS inhibitors, yeast – validation compound set, pilot screen (AID 2706);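 also: yeast exposed to compound for one week at 30 degrees C before staining; 100% = mean of all compound wells on the same plate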
- particulars: S. cerevisiae aging, superoxide DHE fluorescence; at 10 µM; stronger effect = lower value
measured_attribute: superoxide response (% of plate) (%)

• COc1ccc(C(=O)NCc2cccnc2)cc1 = 105
• CC1(C)S[C@@H]2[C@H](NC(=O)Cc3ccccc3)C(=O)N2[C@H]1C(=O)O = 92.1
• CC(=O)[C@H]1[C@H](C#N)C[C@H]2[C@@H]3CC=C4C[C@@H](O)CC[C@]4(C)[C@H]3CC[C@@]21C = 104
• COc1ccc(CNC(=O)C2CCCN2C)cc1OC (stereo unspecified) = 87.7
• CC1(C)Cc2ccccc2-c2nc(-c3ccccc3)oc(=O)c21 = 89.6
• COc1ccc(NC(=O)Nc2ccc(C(C)C)cc2)cc1 = 98.7
• COc1cc(NC(=S)NN2CCN(C)CC2)cc(OC)c1OC = 91.4
• O=C(NCc1ccco1)/C(=C\C=C\c1ccccc1)NC(=O)c1ccccc1Br = 95.8
• O=C(OCCN1CCOCC1)c1cccs1 = 88.9
• Cc1ccc(C(=O)NCCNC(=O)c2ccccc2)cc1 = 102
• COc1ccc(-n2cc(CNCc3cccnc3)c(-c3cccc(F)c3)n2)cc1 = 89.3

###

- experimental_target: Cell division control protein 42 homolog (Homo sapiens) (UniProt P60953)
- Sequence (P60953 whole entry, looked up): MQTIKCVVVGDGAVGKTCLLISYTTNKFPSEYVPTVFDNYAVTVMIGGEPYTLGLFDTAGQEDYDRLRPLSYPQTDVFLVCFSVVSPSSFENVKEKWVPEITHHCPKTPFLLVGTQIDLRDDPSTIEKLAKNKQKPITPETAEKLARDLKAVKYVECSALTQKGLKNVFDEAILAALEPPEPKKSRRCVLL
- assay_method_text: inhibition of fluorescent GTP binding to wildtype Cdc42 – biochemical, multiplex bead flow cytometry, Bodipy-FL-GTP, dose response (AID 1334)
- particulars: bead-based flow cytometry, Bodipy-FL-GTP binding to GST-Cdc42; at 100 µM (top of the series) unless noted
Measured potencies and affinities stand elsewhere.
# note: exactly 60% is not below, so it is FALSE; use TRUE for fluorescence, percent of control (lower = inhibition) strictly under it

• O=C(O)c1cccnc1SCc1ccccc1Cl = FALSE
• O=S(=O)(Cc1ccccc1)N1CCc2ccccc21 = TRUE
• Cc1nc2cc(C(=O)NCc3ccc4c(c3)OCO4)ccc2n1-c1ccc(Br)cc1 = TRUE
• O=C(O)c1ccc(CNCc2ccccc2Cl)s1 = FALSE
• Nc1[nH]n2c(=O)c3c(nc2c1N=Nc1ccccc1)CCCC3 = TRUE
• O=C(Cn1cnc2cc([N+](=O)[O-])ccc2c1=O)NCCc1ccc(F)cc1 = TRUE
• CCn1cc(C(=O)O)c(=O)c2cc(F)c(N/N=C/c3ccccc3[N+](=O)[O-])cc21 = TRUE
• O=C(C#Cc1cccc(O)c1)c1ccc([N+](=O)[O-])cc1 = FALSE
• COc1cccc(C(=O)O)c1OCc1ccccc1Br = TRUE
• CC(C)(C)C#CC(=O)c1ccc([N+](=O)[O-])cc1 = TRUE
• CCC(C)C(=O)Nc1ccc(OC)cc1OC (configuration not stated) = FALSE

###

- assay_method_text: TOR pathway LAP4-GFP level changes – S. cerevisiae, multiplex flow cytometry, primary screen (AID 1873)
- particulars: S. cerevisiae LAP4-GFP expression, 3 h, at 10 µM, stronger effect = higher value
Inconclusive results are not listed.
Kindly return met if reported GFP response vs DMSO is no lower than 90%; return not met if it is lower.

- CC12CN3CC(C)(CN(C1)C3c1ccc(Br)cc1O)C2 (stereo unspecified): met
- N=c1nc(N2CCCCC2)cc(N)n1O: not met
- O=C(Cc1c[nH]c2ccccc12)OCCOC(=O)Cc1c[nH]c2ccccc12: met
- O=C(Nc1ccc(F)c([N+](=O)[O-])c1)c1ccc2c(c1)OCCO2: met
- O=C(O)c1cccnc1Nc1cccc(C(F)(F)F)c1: not met
- COc1cc(C(=O)NCCc2c[nH]c3ccccc23)ccc1OCc1c(C)noc1C: met
- Cc1cccc2c(C(=O)O)cc(-c3cccnc3)nc12: met
- COc1ccc(/C=C/C(=O)Nc2ccccc2C(=O)O)cc1OC: not met
- CC1CCc2cc(F)cc3c(=O)c(C(=O)O)cn1c23 (stereo unspecified): met
- O=C(NC1CC1)C1CCN(C2CCN(C(=O)Cc3ccc(F)cc3)CC2)CC1: not met

The reported numbers originate from PubChem BioAssay.
